assay-procedure: Cytotoxicity against mock-infected human MT4 cells after 5 days by MTT assay
Type: cell-based
This section presents molecules with their documented CC50 at 120 h values.
Your answer should be a plain number; it is taken to be in µM.

Would you please look over these solved cases?
[[record]]
molecule = "C=CCNC(=O)c1cnc(Nc2ccc(C#N)cc2)cc1Oc1c(C)cc(C#N)cc1C"
observed_value = 207

[[record]]
molecule = "C#CCNC(=O)c1cnc(Nc2ccc(C#N)cc2)cc1Oc1c(C)cc(C#N)cc1C"
observed_value = 167

[[record]]
molecule = "Cc1cc(C#N)cc(C)c1Oc1cc(Nc2ccc(C#N)cc2)ncc1C(=O)NCC1CCCO1 (stereo not given)"
observed_value = 143


Prompt: Consider the molecule shown here: COC(CNC(=O)c1cnc(Nc2ccc(C#N)cc2)cc1Oc1c(C)cc(C#N)cc1C)OC What is its recorded CC50 at 120 h?
Completion: 90.6

Prompt: Reported CC50 at 120 h, molecule Cc1cc(C)c(Oc2cc(Nc3ccc(C#N)cc3)ncc2C(=O)NC2CC2)c(C)c1 : ____
Completion: 25.8

Prompt: Find the recorded CC50 at 120 h belonging to Cc1cc(C)c(Oc2cc(Nc3ccc(C#N)cc3)ncc2C(=O)NCCC#N)c(C)c1 and report it.
Completion: 9.89

---

assay-procedure: in vitro
applied-conditions: human, MT4 cells, mock-infected (CC50) and HIV1 3B infected (EC50)
Description: Selectivity index, ratio of CC50 for mock-infected human MT4 cells to EC50 for HIV1 3B infected in human MT4 cells
Reported selectivity ratio is given for each of the following compounds.

Prompt: Look up selectivity ratio for this compound: O=c1[nH]cnc2c1ncn2[C@H]1CC[C@@H](CO)O1
Completion: > 9

Prompt: So what's the measured selectivity ratio for this one? Cc1cc(C#N)cc(C)c1Oc1cc(Nc2ccc(C#N)cc2)ncc1C(=O)NC1CC1
Completion: 784

Prompt: Which selectivity ratio reading was recorded for the compound Cc1cc(C)c(Oc2cc(Nc3ccc(C#N)cc3)ncc2C(=O)NCCC#N)c(C)c1 ?
Completion: 310

Prompt: Bench note: what selectivity ratio did COCCNC(=O)c1cnc(Nc2ccc(C#N)cc2)cc1Oc1c(C)cc(C#N)cc1C show?
Completion: 35

Prompt: So what does the record say about selectivity ratio for C#CCNC(=O)c1cnc(Nc2ccc(C#N)cc2)cc1Oc1c(C)cc(C#N)cc1C ?
Completion: 703

Prompt: Look at this compound and give its reported selectivity ratio. Cc1cc(C#N)cc(C)c1Oc1cc(Nc2ccc(C#N)cc2)ncc1C(=O)NCCN(C)C
Completion: ≤ 3

Prompt: Would you kindly share the measured selectivity ratio for Cc1cc(C#N)cc(C)c1Oc1cc(Nc2ccc(C#N)cc2)ncc1C(N)=O ?
Completion: > 6200

---

Recorded selectivity ratio values for a group of molecules are listed next.
assay-procedure: in vitro
applied-conditions: human, MT4 cells, mock-infected (CC50) and HIV1 3B infected (EC50)
Just the number, please.

[[record]]
smiles_code = "COC(CNC(=O)c1cnc(Nc2ccc(C#N)cc2)cc1Oc1c(C)cc(C#N)cc1C)OC"
observed_value = 20

[[record]]
smiles_code = "Cc1cc(C#N)cc(C)c1Oc1cc(Nc2ccc(C#N)cc2)ncc1C(=O)NCCC#N"
observed_value = 97

[[record]]
smiles_code = "Cc1cc(C)c(Oc2cc(Nc3ccc(C#N)cc3)ncc2C(=O)NC2CC2)c(C)c1"
observed_value = 103


As a next step, examine the molecule that follows.
Prompt: What value of measured selectivity ratio is listed for COCCNC(=O)c1cnc(Nc2ccc(C#N)cc2)cc1Oc1c(C)cc(C)cc1C ?
Completion: 359
